Target: Recombinant human integrin αvβ5 (Homo sapiens (Human), UniProt P06756+P18084)
Sequence (P06756 31-992): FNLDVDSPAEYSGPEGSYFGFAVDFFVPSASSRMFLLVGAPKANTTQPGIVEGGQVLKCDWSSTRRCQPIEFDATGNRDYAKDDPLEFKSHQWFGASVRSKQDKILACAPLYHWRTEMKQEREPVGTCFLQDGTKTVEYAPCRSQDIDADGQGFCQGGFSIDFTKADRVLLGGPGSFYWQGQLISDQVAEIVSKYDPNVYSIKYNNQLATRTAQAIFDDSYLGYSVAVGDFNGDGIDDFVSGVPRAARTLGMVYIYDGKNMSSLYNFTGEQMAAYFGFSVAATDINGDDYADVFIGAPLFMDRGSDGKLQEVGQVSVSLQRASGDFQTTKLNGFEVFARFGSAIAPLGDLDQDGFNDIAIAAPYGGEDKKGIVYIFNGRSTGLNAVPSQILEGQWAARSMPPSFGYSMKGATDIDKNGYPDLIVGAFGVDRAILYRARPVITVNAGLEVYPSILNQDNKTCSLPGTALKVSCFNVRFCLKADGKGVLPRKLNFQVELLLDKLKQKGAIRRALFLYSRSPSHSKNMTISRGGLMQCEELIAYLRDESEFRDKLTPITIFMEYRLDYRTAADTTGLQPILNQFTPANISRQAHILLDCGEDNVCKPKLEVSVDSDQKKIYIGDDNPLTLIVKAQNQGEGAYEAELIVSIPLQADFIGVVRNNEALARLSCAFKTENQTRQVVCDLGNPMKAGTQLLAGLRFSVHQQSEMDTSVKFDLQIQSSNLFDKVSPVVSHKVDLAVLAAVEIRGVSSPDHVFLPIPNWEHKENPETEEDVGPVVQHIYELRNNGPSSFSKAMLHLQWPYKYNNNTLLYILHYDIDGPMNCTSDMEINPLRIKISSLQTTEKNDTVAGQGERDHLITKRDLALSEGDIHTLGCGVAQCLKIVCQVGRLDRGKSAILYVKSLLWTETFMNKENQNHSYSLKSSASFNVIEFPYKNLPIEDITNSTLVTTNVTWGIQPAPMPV
Sequence (P18084 24-719): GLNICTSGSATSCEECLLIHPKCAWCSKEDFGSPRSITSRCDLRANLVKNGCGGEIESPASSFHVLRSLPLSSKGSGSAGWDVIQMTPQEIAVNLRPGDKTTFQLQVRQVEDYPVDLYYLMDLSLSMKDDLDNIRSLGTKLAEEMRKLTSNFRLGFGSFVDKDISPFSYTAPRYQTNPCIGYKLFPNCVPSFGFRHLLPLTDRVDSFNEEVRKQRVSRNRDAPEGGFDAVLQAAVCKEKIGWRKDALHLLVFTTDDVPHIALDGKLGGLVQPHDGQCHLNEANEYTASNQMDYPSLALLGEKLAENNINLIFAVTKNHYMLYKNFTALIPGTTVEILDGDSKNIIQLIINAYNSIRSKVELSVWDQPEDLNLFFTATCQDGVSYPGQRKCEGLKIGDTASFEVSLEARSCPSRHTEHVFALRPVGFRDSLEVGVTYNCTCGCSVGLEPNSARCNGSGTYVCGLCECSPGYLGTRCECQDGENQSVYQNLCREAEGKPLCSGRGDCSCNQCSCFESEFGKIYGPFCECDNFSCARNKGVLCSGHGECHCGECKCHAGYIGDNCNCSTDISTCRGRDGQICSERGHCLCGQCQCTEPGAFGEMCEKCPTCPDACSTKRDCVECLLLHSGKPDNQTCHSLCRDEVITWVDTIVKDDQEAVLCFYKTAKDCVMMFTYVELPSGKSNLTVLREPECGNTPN
Assay: Solid Phase Receptor Assay (SPRA) for αvβ5 function
Conditions: vitronectin-coated plate
pIC50: −log10 of the molar value.
endpoint: pIC50

O=C(O)C[C@H](NC(=O)CNC(=O)c1cncc(NC2=NCC(O)CN2)c1)c1cc(Cl)cc(Br)c1 (stereo partly shown) | 10.00
Cc1cc(C)cc(C(CC(=O)O)NC(=O)CNC(=O)c2cccc(NC(=N)N)c2)c1 (stereo not shown) [Example C4, reference compound] | 8.70
N=C(N)Nc1cccc(C(=O)NCC(=O)NC(CC(=O)O)c2ccccc2)c1 (stereo not shown) [Example C5, reference compound] | 9.00
N=C(N)Nc1cccc(C(=O)NCC(=O)NC(CC(=O)O)c2cc(F)cc(C(F)(F)F)c2)c1 (stereo not shown) [Example C9, reference compound] | 9.40

A. O=C(O)C[C@H](NC(=O)CNC(=O)c1cc(O)cc(NC2=NCC(O)CN2)c1)c1cc(Cl)cc(Br)c1O (stereo partly shown) [Example C1, reference compound]
B. O=C(O)C[C@H](NC(=O)CNC(=O)c1cc(O)cc(NC2=NCC(O)CN2)c1)c1cc(Br)cc(C(F)F)c1 (stereo partly shown)
C. O=C(O)C[C@H](NC(=O)CNC(=O)c1cc(O)cc(NC2=NCC(O)CN2)c1)c1cc(Cl)cc(C(F)F)c1 (stereo partly shown)
Q: Sort these compounds on pIC50 so the largest reading comes first. Rank them, then answer with their labels in that order.
A: C, B, A
(C: 9.70, B: 9.40, A: 8.52)
